Would you mind telling me the reported pEC50 of each entry?
- Assayed target: κ-opioid receptor (Homo sapiens)
- Sequence (P41145 whole entry): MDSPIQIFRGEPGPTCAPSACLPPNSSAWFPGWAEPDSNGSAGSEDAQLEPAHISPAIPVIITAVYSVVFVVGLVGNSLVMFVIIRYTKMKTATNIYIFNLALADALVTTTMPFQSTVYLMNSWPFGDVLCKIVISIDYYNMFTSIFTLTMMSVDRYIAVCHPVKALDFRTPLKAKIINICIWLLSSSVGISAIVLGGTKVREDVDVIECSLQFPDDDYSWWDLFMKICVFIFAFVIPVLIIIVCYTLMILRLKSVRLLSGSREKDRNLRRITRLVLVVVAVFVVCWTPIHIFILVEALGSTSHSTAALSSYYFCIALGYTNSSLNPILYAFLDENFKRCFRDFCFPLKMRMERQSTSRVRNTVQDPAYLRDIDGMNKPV
- Protocol: κ-opioid receptor [35S]GTPγS functional assay, HEK-293 or CHO cells
- Type: biochemical
- Design: expressed in transfected cells; host or cells: HEK-293
- Procedure: Plates were incubated for 30 min at a temperature of about 25° C. with shaking.
Give bare numbers, as −log10 of the molar value.

{"Compound": "C[C@H]1[C@H]2Cc3ccc(O)cc3[C@]1(CCO)CCN2C [Compound 12]", "Reported measurement": 6.46}

Query block: Return pEC50 for the following compound: COc1ccc2c(c1)[C@]1(CCO)CCN(CC3CC3)[C@H](C2)[C@@H]1C [Compound 43]
Result block: 6.45
